Just for reference, patent EP4585616A1 is where these values come from.

Recorded EC50, one value per entry.
Target: T1, human ROR1 on the surface of tumor cells (human, UniProt Q01973 30-937)
T1 construct: whole, on cells; also called ROR1 on the cell surface; tumor cell ROR1
T1 sequence (Q01973 30-937): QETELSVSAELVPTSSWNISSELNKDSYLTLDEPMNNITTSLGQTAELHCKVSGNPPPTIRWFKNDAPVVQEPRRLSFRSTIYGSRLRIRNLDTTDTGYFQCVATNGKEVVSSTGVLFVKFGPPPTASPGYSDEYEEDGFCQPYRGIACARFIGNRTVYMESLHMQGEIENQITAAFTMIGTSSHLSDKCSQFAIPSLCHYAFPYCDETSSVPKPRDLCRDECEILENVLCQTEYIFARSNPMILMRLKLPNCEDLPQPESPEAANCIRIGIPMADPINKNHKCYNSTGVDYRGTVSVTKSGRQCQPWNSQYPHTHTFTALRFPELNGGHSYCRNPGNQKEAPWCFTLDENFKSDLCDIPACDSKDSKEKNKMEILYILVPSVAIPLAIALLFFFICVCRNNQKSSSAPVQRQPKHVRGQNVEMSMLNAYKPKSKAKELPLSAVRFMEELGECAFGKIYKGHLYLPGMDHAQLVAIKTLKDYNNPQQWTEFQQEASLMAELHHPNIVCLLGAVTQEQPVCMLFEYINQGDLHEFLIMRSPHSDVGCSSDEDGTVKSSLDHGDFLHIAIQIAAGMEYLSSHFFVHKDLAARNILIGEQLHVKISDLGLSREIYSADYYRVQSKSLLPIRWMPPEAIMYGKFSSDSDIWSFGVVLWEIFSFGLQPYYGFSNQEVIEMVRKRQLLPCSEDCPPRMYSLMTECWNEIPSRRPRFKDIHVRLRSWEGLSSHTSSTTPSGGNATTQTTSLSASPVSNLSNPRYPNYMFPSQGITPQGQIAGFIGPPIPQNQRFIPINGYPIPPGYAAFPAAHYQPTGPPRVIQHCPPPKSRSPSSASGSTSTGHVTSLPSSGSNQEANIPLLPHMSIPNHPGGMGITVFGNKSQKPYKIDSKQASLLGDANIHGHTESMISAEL
Experiment: FACS, MDA-MB-231 cells
assayReadout: EC50 (nM)

mAb004c (antibody, V domains shown, Human-mouse chimeric) VH: EVQLVESGGGLVQPKGSLKLSCAASGFTFNTYAMHWVRQAPGKGLEWVARIRSKSSNFATYYADSVRDRFTISRDDSQSMLYLQMNNLKTEDTAMYYCVRGYGPSYFSLDYWGQGTSVTVSS VL: DVVMTQTPLSLPVSLGDQASISCRSSQSLVHSNGNTYLHWYLQKPGQSPKLLIYKVSNRFSGVPDRFSGSGSGTDFTLKINRVEAEDLGVYFCSQSTHAIYTFGGGTKLEIK	0.4
mAb001c (antibody, V domains shown, Human-mouse chimeric; also called human-mouse chimeric antibody mAb001c) VH: EVRLQQSGPVLVKPGASVKMSCKASGYTFTDYNLHWVKQSHRQSLEWIGYINPNHDGTSYNQKFQGKATLTVDRSSSTAYMEFRSLTSEDSAVYYCARRVRTGTGLDDWGQGTTLTVSS VL: DVLMTQSPLSLPVSLGDQASISCRSSHNIVHTNGNTYLEWYLQKPGQSPKLLIYKVSNRFSGVPDRFSGSGSGTYFTLTISRVEAEDLGVYYCFQGSRFPYTFGGGTKLEIK	0.15
UC-961 (antibody, V domains shown, Control antibody of US20150232569A1, made with human IgG1 heavy chain constant region and Kappa chain constant region) VH: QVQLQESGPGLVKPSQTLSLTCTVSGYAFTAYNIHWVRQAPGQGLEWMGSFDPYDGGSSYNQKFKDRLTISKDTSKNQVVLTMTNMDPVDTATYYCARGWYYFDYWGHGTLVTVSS VL: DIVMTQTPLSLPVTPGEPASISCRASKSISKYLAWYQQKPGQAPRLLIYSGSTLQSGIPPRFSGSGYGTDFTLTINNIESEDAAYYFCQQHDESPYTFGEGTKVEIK	0.21
mAb005c (antibody, V domains shown, Human-mouse chimeric) VH: EVQLVESGGGLVKPGGSLKLSCAASGFTFNSYAMSWVRQTPEKRLEWVATISDGGSYTYYPDNEKGRFTISRDNAKNNLYLQMSHLKSEDTAIYYCVRGGYYYNLYAMDYWGQGTSVTVSS VL: DIVLTQSPASLAVSLGQRAIISCKASQSVSFPGTSLMHWYQQKPGQQPKLLIYRASNLEAGVPTRFSGSGSRTDFTLNIHPVEEDDTATYYCQQSREYPWTFGGGTQLEIK	0.24
